Test system: Plasmodium berghei
Experiment: Screen against P. berghei liver stage (PbLuc), transformed with Luciferase, at 2uM
Type: functional, HepG2
Conditions: tested at 2 uM
Hit rate of the full screen: of about 68,000 compounds, about 2,700 (4%) showed an effect of 50% or more. The entries come from a sample that favours strong results as a whole.
RESULT TYPE: INHIBITION (%)
// return numeric value only (unit: %, not printed)

Q: If you can, please state the reported INHIBITION value of CC(C)n1nc(Cn2cccc2)c2c1CN(Cc1ccoc1)C2 .
A: 51.4

Q: Queued: COc1ccc(Cl)cc1CN(CC(N)=O)C(C)C
A: 50.46

Q: What do you get for CN(Cc1cnn(C)c1)C1CCCN(Cc2noc(C3CC3)n2)C1 (stereo unspecified) ?
A: 22.75

Q: Then this molecule: c1ccc(-c2nc(CNC3CCc4ncnn4C3)cs2)cc1 (stereo unspecified)
A: -7.88

Q: What do you get for CC(C)O[C@@H]1CC[C@H]2[C@H]1OCCN2C(=O)c1nn(C)c2ccccc12 ?
A: -13.37

Q: Repeat with COc1ccc(C)cc1CC(=O)NS(=O)(=O)c1ccc(C(N)=O)cc1
A: 43.75

Q: Now the molecule COc1ccc(Cl)cc1CC(=O)NS(=O)(=O)c1ccc(C(N)=O)cc1
A: 58.96

Q: Likewise for COc1ccc(F)cc1CN(CC(N)=O)C(C)C ?
A: -21.69

Q: Same lookup for Cn1nc(Cn2ccnc2)c2c1CN(Cc1ccoc1)C2 , please.
A: 4.26

Q: Also, Cc1cc(C)n(CCN2CCC(N(C)Cc3noc(C4CC4)n3)C2)n1 (stereo unspecified) please.
A: 12.66

Q: Would you kindly repeat that for CC[C@@H]1N(CC2CCOCC2)CCC[C@]12CCC(=O)N2 ?
A: 20.88
